- PROTOCOL DESCRIPTION: Acute toxicity in the hens fertile egg screening test (HEST).
- Set-up: species or system Gallus gallus
- DETAILS: chicken
OBSERVATION TYPE: LD50

>>> measurement("COc1c2c(c(O)c3c1C(=O)c1c(cc(O)c(C)c1O)C3=O)-c1c(cc(/C=N/NC(=S)NC3CCCCC3)c(C(=O)O)c1O)CC2 [MHL CYCLOHEXYLTHIOSEMICARBAZONE]")
"> 50 mg/kg"

====

- ASSAY SYSTEM: Steryl-sulfatase (Homo sapiens, UniProt P08842)
- Sequence (P08842 whole entry): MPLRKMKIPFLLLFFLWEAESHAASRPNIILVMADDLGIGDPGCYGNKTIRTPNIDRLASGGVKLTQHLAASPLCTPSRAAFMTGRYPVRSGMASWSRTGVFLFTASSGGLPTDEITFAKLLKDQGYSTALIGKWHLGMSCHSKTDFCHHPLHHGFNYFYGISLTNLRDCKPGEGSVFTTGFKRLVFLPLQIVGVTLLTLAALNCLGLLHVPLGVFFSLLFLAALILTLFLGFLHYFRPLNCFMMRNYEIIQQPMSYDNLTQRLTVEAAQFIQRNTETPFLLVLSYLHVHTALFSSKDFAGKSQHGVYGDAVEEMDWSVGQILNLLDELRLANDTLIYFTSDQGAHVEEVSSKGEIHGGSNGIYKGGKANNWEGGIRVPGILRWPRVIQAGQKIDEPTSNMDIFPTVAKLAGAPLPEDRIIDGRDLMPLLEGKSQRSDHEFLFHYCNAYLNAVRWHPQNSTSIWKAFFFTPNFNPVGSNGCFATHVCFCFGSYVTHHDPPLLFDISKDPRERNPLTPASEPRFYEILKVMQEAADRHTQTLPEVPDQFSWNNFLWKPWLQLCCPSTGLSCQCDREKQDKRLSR
- PROTOCOL DESCRIPTION: Inhibitory activity againist Estrone sulfatase from MCF-7 cells ([…])
# key: entry, value: IC50
OBSERVATION TYPE: IC50 (µM)

>>> measurement("CCCCCCC/N=C(\\S)N/N=C/c1cc2c(c(O)c1C(=O)O)-c1c(O)c3c(c(OC)c1CC2)C(=O)c1c(cc(O)c(C)c1O)C3=O")
9
>>> measurement("Cc1cc(=O)oc2cc(OS(N)(=O)=O)ccc12")
2.6
>>> measurement("CC/N=C(\\S)N/N=C/c1cc2c(c(O)c1C(=O)O)-c1c(O)c3c(c(OC)c1CC2)C(=O)c1c(cc(O)c(C)c1O)C3=O")
16
